The origin of these recorded values is patent US20230278972A1.

System: Ryegrass, Italian (Italian ryegrass, Lolium multiflorum)
Test: Test A preemergence, Ryegrass, Italian
Assay type: in vivo
Details: Preemergence, 500 g ai/ha; 0 to 100 scale (0 no effect, 100 complete control)
QUANTITY MEASURED: Plant response rating, Ryegrass, Italian
Answers are plain numbers.

> print(dat)
                                   compound                         quantity.measured  experimental.value
1  Cc1cc(C)c(N(S(=O)(=O)C(F)(F)F)S(=O)(=O)C(F)(F)F)cc1C1=NOC2(CCCC2)C1  Plant response rating, Ryegrass, Italian                  80
2  Cc1cc(C)c(N(S(C)(=O)=O)S(=O)(=O)C(F)(F)F)cc1-c1ccnn(C)c1=O  Plant response rating, Ryegrass, Italian                 100
3  O=C(c1ccc(Cl)c(NS(=O)(=O)C(F)(F)F)c1)N1CCOCC1  Plant response rating, Ryegrass, Italian                  30

For each of the compounds below, note its Plant response rating, Ryegrass, Italian.
1. CCn1cc(-c2cc(N(S(=O)(=O)C(F)(F)F)S(=O)(=O)C(F)(F)F)c(C)cc2C)c(=O)n(C)c1=O
2. Cc1cc(C#N)c(C(=O)N2CCCCC2)cc1NS(=O)(=O)C(F)(F)F
3. Cc1cc(C)c(N(S(C)(=O)=O)S(=O)(=O)C(F)(F)F)cc1-c1cc(C(C)C)nn(C)c1=O
4. Cc1cc(-c2cc(NS(=O)(=O)C(F)(F)F)c(C)cc2C)c(=O)n(C)n1
5. Cc1cc(Cl)c(NS(=O)(=O)C(F)(F)F)cc1C(=O)N(C)C
6. Cc1cc(C(F)(F)F)c(NS(=O)(=O)C(F)(F)F)cc1C(=O)N(C)C

Result:
1. 90
2. 40
3. 70
4. 100
5. 100
6. 100

For each of the items listed, what is its Plant response rating, Ryegrass, Italian?
1. CCn1nc(C)cc(-c2cc(N(S(=O)(=O)C(F)(F)F)S(=O)(=O)C(F)(F)F)c(C)cc2C)c1=O
2. Cc1cc(C)c(C2=NOC3CCCCC23)cc1NS(=O)(=O)C(F)(F)F (racemic)
3. Cc1cc(-c2cc(N(S(=O)(=O)C(F)(F)F)S(=O)(=O)C(F)(F)F)c(C)cc2C)c(=O)n(C)n1
4. Cc1c(NS(=O)(=O)C(F)(F)F)cc(C(=O)N2CCC3(CC2)OCCCO3)c(C)c1F

Result:
90
100
100
100

---

System: kochia (Bassia scoparia)
Assay: Test A1 preemergence, kochia
Assay type: in vivo
Conditions: 125 g ai/ha, 0 to 100 scale, 0 no effect, 100 complete control
QUANTITY MEASURED: Plant response rating, Kochia
Give bare numbers.

Use these answered entries as a reference point.
> print(dat)
                                   compound              quantity.measured  experimental.value
1  Cc1c(C(=O)N(C)C)cc(NS(=O)(=O)C(F)(F)F)c(Cl)c1F [Compound 320]  Plant response rating, Kochia                  50
2  CCOC(=O)N(c1cc(C(=O)N2CCOCC2)c(C)c(C)c1C)S(=O)(=O)C(F)(F)F [Compound 325]  Plant response rating, Kochia                  70

For every item below, please supply its Plant response rating, Kochia.
1. COCC1CC(c2cc(N(COC(=O)C(C)(C)C)S(=O)(=O)C(F)(F)F)c(C)cc2C)=NO1 (stereo not shown) [Compound 338]
2. CCc1cc(C)c(C2=NOC3(CCCC3)C2)cc1NS(=O)(=O)C(F)(F)F [Compound 311]
3. Cc1c(C(=O)N2CCC(C)CC2)cc(N(COC(=O)C(C)(C)C)S(=O)(=O)C(F)(F)F)c(C)c1C [Compound 369]

Result:
1. 10
2. 0
3. 0

Dear colleague, could you please provide Plant response rating, Kochia for the compounds listed below?
1. CCOC(=O)N(c1cc(C(=O)N2CCC(c3ccccc3)CC2)c(C)cc1C)S(=O)(=O)C(F)(F)F [Compound 365]
2. Cc1c(NS(=O)(=O)C(F)(F)F)cc(C(=O)N(C)C)c(C)c1C [Compound 288]

Result:
[0, 40]
